- assayed target: T1, MERS-CoV Spike Protein S2 (aa 726-1296, His Tag) (Sino 40070-[change]) (MERS-CoV, UniProt K9N5Q8 726-1296)
- T1 sequence: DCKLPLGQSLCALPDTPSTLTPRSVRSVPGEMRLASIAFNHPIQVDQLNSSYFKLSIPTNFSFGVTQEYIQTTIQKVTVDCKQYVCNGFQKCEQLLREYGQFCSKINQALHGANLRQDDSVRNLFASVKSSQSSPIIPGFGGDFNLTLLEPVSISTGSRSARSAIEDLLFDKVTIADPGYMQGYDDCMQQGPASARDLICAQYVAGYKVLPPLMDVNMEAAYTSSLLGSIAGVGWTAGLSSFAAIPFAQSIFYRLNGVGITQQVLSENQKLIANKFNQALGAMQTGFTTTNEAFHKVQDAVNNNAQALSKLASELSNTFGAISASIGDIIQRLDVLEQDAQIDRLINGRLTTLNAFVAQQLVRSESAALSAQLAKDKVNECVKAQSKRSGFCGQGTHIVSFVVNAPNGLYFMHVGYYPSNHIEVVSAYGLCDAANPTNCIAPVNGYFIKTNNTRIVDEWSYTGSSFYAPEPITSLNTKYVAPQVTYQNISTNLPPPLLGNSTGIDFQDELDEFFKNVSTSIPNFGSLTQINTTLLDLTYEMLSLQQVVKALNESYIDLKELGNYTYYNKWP
- measurement description: Luminex, supernatant
Can you tell me MFI for the items I'm about to list?
Express it in MFI; write the number only.

I am curious: what MFI value has been reported for mAb10913 (antibody, V domains shown) VH: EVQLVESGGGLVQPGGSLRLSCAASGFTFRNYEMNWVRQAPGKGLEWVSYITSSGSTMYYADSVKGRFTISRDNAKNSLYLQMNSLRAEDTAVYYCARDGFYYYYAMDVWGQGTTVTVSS VL: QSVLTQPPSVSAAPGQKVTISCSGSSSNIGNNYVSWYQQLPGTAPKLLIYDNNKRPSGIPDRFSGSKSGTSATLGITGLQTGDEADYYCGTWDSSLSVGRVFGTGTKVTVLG ?
26

I am curious: what MFI value has been reported for mAb10985 (antibody, V domains shown) VH: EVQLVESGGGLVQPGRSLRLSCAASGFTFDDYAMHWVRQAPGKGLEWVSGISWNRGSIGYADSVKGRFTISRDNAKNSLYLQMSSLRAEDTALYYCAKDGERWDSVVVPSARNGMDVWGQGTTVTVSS VL: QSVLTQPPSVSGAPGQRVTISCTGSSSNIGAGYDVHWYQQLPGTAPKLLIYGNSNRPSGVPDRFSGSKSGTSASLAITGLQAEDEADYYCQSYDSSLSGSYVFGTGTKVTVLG ?
28

I am curious: what MFI value has been reported for mAb10914 (antibody, V domains shown) VH: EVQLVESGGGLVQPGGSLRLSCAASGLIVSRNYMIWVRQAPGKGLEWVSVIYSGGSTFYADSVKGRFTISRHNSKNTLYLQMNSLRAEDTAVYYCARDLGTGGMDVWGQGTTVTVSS VL: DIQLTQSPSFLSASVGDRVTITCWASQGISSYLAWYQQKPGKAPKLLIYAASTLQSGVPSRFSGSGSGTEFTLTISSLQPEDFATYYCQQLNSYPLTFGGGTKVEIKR ?
28

I am curious: what MFI value has been reported for mAb10935 (antibody, V domains shown) VH: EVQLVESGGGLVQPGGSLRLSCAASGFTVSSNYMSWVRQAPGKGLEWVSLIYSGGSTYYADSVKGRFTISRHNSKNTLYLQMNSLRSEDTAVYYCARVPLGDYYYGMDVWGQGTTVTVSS VL: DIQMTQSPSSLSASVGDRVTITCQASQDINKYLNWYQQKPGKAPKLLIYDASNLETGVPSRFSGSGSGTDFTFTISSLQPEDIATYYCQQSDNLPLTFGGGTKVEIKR ?
18

I am curious: what MFI value has been reported for mAb10938 (antibody, V domains shown) VH: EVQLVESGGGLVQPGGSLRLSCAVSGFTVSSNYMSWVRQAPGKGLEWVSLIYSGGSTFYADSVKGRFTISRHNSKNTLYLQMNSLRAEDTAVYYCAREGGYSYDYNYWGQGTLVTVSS VL: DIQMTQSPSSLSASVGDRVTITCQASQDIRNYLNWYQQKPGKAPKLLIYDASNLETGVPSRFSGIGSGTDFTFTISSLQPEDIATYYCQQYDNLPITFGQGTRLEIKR ?
19

I am curious: what MFI value has been reported for mAb10920 (antibody, V domains shown) VH: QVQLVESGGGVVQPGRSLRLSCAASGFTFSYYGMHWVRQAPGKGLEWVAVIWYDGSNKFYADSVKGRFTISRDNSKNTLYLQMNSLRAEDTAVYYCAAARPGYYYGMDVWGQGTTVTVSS VL: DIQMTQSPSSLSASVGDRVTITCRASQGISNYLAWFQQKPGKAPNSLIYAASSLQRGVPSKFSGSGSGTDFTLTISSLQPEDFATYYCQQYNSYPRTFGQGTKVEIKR ?
30
